Taken from paper PMC6792352.

Test system: GH3-TRE-Luc cell line
Details: read-out: AC50 (uM) modified / 1000; Tox21_110001=Tox21_303333; viability, 1 nM T3 present, 24 h
property-measured: CC50
Respond with the figure and its unit, in that order.

Ask: // Input: O=[N+]([O-])c1ccc(Nc2ccccc2)cc1 [4-Nitro-N-phenylaniline] . Output its CC50 only.
Reply: 76.1 µM

----------
Test: in vitro
Conditions: rat, gh3-tre-luc cells, AC50 (uM) modified / 1000, Tox21_110001=Tox21_301219; viability, 1 nM T3 present, 24 h
property-measured: CC50 at 24 h

Ask: Identify measured CC50 at 24 h associated with CCCSP(=S)(OCC)Oc1ccc(Cl)cc1Cl (stereo not shown)
Reply: > 90 µM

----------
I'd be grateful if you could share measured CC50 at 24 h for these entries.
Experiment: in vitro
Conditions: rat, gh3-tre-luc cells, AC50 (uM) modified / 1000
Structures can show the parent of a compound that is named as a salt.

CC(C)N1C(=O)N(c2ccccc2)CS/C1=N\C(C)(C)C [Buprofezin]: 45.1 µM
O=[N+]([O-])c1ccc(O/N=C/c2cc(Br)c(O)c(Br)c2)c([N+](=O)[O-])c1 [Bromofenoxim]: 26 µM
Cc1ncc(COP(=O)(O)O)c(CN)c1O [Pyridoxamine phosphate]: > 50 µM
CCCCCCCC[N+](C)(C)CCCCCCCC [Dioctyldimethylammonium chloride]: 19.4 µM
Oc1c(Cl)cc(Cl)c(Cl)c1Cc1c(O)c(Cl)cc(Cl)c1Cl [Hexachlorophene]: 17.1 µM
Cc1ccc2cccnc2c1 [7-Methylquinoline]: > 90 µM

Look at each compound and report its CC50 at 24 h.
1. CCOC(=O)CCc1ccccc1 [Ethyl hydrocinnamate]
2. Cc1cc(C)c(C(=O)O)c(C)c1 [2,4,6-Trimethylbenzoic acid]
3. Brc1cc2ccccc2c2ccccc12 [9-Bromophenanthrene]
4. CCN(CCO)CCCC(C)Nc1ccnc2cc(Cl)ccc12 (stereo not shown) [Hydroxychloroquine sulfate]

Reply:
1. > 90 µM
2. > 90 µM
3. > 90 µM
4. > 50 µM

----------
Test: in vitro
Conditions: rat, gh3-tre-luc cells, AC50 (uM) modified / 1000
Structures can show the parent of a compound that is named as a salt.
property-measured: CC50 at 24 h

CCCCCCCCCCCCCC(=O)OCC(O)CO (stereo not shown): > 90 µM
CCCCC(CC)CN (stereo not shown) [2-Ethylhexylamine]: > 90 µM
CCCCCCOC(=O)c1cccnc1 [Hexyl nicotinate]: > 50 µM
O=C(c1ccccc1)C1CCCCC1 [Cyclohexylphenylketone]: > 90 µM
CCC(=O)c1ccc2c(c1)N(CCCN1CCN(CCO)CC1)c1ccccc1S2 [Carphenazine dimaleate]: 6.82 µM

Hey, quick one: what's CC50 at 24 h for each of these?
1. CCC(C)c1ccccc1O (stereo not shown) [2-(Butan-2-yl)phenol]
2. O=C=Nc1ccc(Cc2ccc(N=C=O)cc2)cc1 [4,4'-Diphenylmethane diisocyanate]
3. CCCCCCCCC(=O)NCc1ccc(O)c(OC)c1 [Nonivamide]
4. C[Si](Cl)(c1ccccc1)c1ccccc1 [Chloro(methyl)diphenylsilane]
5. CN(C)CCOC(=O)C(c1ccccc1)C1(O)CCCC1 (stereo not shown) [Cyclopentolate hydrochloride]

Reply:
1: > 90 µM; 2: > 90 µM; 3: > 90 µM; 4: > 90 µM; 5: > 50 µM

----------
Assay: in vitro
Settings: rat, gh3-tre-luc cells, AC50 (uM) modified / 1000, Tox21_110001=Tox21_301184; viability, 1 nM T3 present, 24 h
property-measured: CC50 at 24 h

Ask: Identify the reported CC50 at 24 h for the following entry. COc1cc(OC)nc(NC(=O)NS(=O)(=O)c2ncccc2OCC(F)(F)F)n1 [Trifloxysulfuron-sodium]
Reply: > 90 µM

----------
Assay: in vitro
Details: rat, gh3-tre-luc cells, AC50 (uM) modified / 1000, Tox21_110001=Tox21_400048; viability, 1 nM T3 present, 24 h
property-measured: CC50 at 24 h

Ask: Report CC50 at 24 h, nothing else, for this molecule: CCOC(=O)CC(SP(=S)(OC)OC)C(=O)OCC (stereo not shown)
Reply: > 90 µM

----------
Test system: GH3-TRE-Luc cell line
Details: read-out: AC50 (uM) modified / 1000; Tox21_110001=Tox21_112119; viability, 1 nM T3 present, 24 h
property-measured: CC50
Form field: result (number plus unit)

Ask: State recorded CC50 with GH3-TRE-Luc cell line, entry Cc1c(C)c2c(c(C)c1O)CCC(C)(COc1ccc(CC3SC(=O)NC3=O)cc1)O2 (stereo not shown) [Troglitazone] , no comment.
Reply: 41.3 µM

----------
Test system: GH3-TRE-Luc cell line
Conditions: read-out: AC50 (uM) modified / 1000; Tox21_110001=Tox21_300119; viability, 1 nM T3 present, 24 h
property-measured: CC50 (µM)
One number for each entry, in µM.

Ask: Output measured CC50 for this item: O=c1n(CC2CO2)c(=O)n(CC2CO2)c(=O)n1CC1CO1 (stereo not shown) [Triglycidyl isocyanurate]
Reply: 33.9

----------
Test system: GH3-TRE-Luc cell line
Conditions: read-out: AC50 (uM) modified / 1000; Tox21_110001=Tox21_112735; viability, 1 nM T3 present, 24 h
Where a name gives a salt, the structure may show the parent alone.
property-measured: CC50
I'd appreciate it if you included the unit after the number.

Ask: In one line, give reported CC50 of the entry CC[C@]1(O)C[C@@H]2CN(CCc3c([nH]c4ccccc34)[C@@](C(=O)OC)(c3cc4c(cc3OC)N(C)[C@H]3[C@@](O)(C(=O)OC)[C@H](OC(C)=O)[C@]5(CC)C=CCN6CC[C@]43[C@@H]65)C2)C1 [Vinblastine sulfate] .
Reply: 2.29 µM

----------
Assay: in vitro
Details: rat, gh3-tre-luc cells, AC50 (uM) modified / 1000, Tox21_110001=Tox21_301160; viability, 1 nM T3 present, 24 h
property-measured: CC50 at 24 h

Ask: Assign CC50 at 24 h to the following record: CCOP(=S)(OCC)Oc1ccc(Cl)cc1Cl [Dichlofenthion]
Reply: > 90 µM

----------
System: GH3-TRE-Luc cell line
Details: read-out: AC50 (uM) modified / 1000; Tox21_110001=Tox21_110224; viability, 1 nM T3 present, 24 h
property-measured: CC50 (µM)
One number for each entry, in µM.

Ask: Name the recorded CC50 of the item O=c1[nH]c2ccccc2n1C1CCN(CCCC(c2ccc(F)cc2)c2ccc(F)cc2)CC1 [Pimozide] in your answer.
Reply: 7.02

----------
Assay: in vitro
Details: rat, gh3-tre-luc cells, AC50 (uM) modified / 1000, Tox21_110001=Tox21_201650; viability, 1 nM T3 present, 24 h
property-measured: CC50 at 24 h

Ask: // Input: Nc1cccnc1 . Output its CC50 at 24 h only.
Reply: > 90 µM

----------
Test: in vitro
Settings: rat, gh3-tre-luc cells, AC50 (uM) modified / 1000, Tox21_110001=Tox21_200200; viability, 1 nM T3 present, 24 h
property-measured: CC50 at 24 h

Ask: Please look at this molecule and report its CC50 at 24 h: C=CCO [Allyl alcohol]
Reply: > 100 µM

----------
Test: in vitro
Details: rat, gh3-tre-luc cells, AC50 (uM) modified / 1000, Tox21_110001=Tox21_400013; viability, 1 nM T3 present, 24 h
property-measured: CC50 at 24 h

Ask: Using the record for O=[N+]([O-])c1c(Cl)c(Cl)cc(Cl)c1Cl [2,3,5,6-Tetrachloronitrobenzene] , state its measured CC50 at 24 h.
Reply: > 90 µM

----------
Test: in vitro
Conditions: rat, gh3-tre-luc cells, AC50 (uM) modified / 1000, Tox21_110001=Tox21_302181; viability, 1 nM T3 present, 24 h
property-measured: CC50 at 24 h

Ask: Please give measured CC50 at 24 h of the following entry: OCCSSCCO [2-Hydroxyethyl disulfide]
Reply: > 90 µM

----------
What CC50 at 24 h was measured for each of the following?
Experiment: in vitro
Conditions: rat, gh3-tre-luc cells, AC50 (uM) modified / 1000
Counter-ions that a name gives are not always drawn.

Solved cases below.
COc1ccc2c(c1)OC(C)(C)C(c1ccccc1)C2c1ccc(OCCN2CCCC2)cc1 (stereo not drawn): 6.42 µM
N#Cc1ccccc1: > 90 µM
CCCC(C)CO (stereo not drawn): > 90 µM
O=C1c2c(O)ccc(Nc3ccc(CCO)cc3)c2C(=O)c2c([N+](=O)[O-])ccc(O)c21: 63.1 µM
COC(=O)c1cc(Oc2ccc(Cl)cc2Cl)ccc1[N+](=O)[O-]: > 90 µM

Lab note: each compound below needs its CC50 at 24 h filled in.
1. O=C(O)c1snc(Cl)c1Cl
2. CCCc1ncc(C[n+]2ccccc2C)c(N)n1 [Amprolium hydrochloride]
3. COc1ccc2c(c1OC)C(=O)O[C@@H]2[C@H]1c2c(cc3c(c2OC)OCO3)CCN1C
4. CC(C)(C)C(=O)Oc1ccc(S(=O)(=O)Nc2ccccc2C(=O)NCC(=O)O)cc1 [Sivelestat sodium tetrahydrate]

Reply:
1. > 90 µM
2. > 20 µM
3. 15 µM
4. > 50 µM
